target: T1, pKal catalytic domain Mutant 2 (human, UniProt P03952 391-638, limits assumed); assay: apparent Ki (Ki,app), enzyme inhibition, pKal catalytic domain Mutant 2
T1 construct: domain: catalytic domain; Expressed in Pichia pastoris, purified by IMAC; not shown: His tag fusion
T1 sequence (P03952 other isoform, or with tags, fused parts or gaps mutant limits assumed): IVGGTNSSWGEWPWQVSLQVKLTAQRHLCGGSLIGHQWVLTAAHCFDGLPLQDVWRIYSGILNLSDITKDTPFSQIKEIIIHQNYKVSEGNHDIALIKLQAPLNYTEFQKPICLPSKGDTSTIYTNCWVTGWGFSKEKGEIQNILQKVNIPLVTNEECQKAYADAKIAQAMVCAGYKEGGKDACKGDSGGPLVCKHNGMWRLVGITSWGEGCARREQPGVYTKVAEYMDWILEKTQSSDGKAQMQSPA
measured-metric: pKi
Give bare numbers, as −log10 of the molar value.

List the reported pKi of each binder below.
1. DX-2922 (antibody, V domains shown, also called X101-A01; 559A-X0101-A01) VH: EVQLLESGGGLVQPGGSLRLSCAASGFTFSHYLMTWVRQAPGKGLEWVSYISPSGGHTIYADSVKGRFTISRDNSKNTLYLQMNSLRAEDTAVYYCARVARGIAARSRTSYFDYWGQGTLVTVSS VL: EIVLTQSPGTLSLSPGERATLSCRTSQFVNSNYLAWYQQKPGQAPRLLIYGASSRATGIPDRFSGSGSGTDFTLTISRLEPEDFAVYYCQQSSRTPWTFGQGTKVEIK
2. M29-D09 (Fab, V domains shown, also called 559A-M29-D09 (sFab); 559A-M0029-D09) VH: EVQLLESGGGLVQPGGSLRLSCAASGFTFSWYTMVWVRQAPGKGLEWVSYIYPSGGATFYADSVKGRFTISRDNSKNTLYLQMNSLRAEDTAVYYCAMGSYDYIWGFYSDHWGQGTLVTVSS VL: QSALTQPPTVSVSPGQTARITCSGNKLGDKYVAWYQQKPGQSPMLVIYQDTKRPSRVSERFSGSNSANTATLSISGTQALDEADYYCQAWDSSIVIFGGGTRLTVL
3. M145-D11 (Fab, V domains shown, also called 559A-M145-D11 (sFab); 559A-M0145-D11) VH: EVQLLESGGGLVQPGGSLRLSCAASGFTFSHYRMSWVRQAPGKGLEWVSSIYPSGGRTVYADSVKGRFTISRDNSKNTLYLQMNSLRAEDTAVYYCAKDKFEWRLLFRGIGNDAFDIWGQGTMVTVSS VL: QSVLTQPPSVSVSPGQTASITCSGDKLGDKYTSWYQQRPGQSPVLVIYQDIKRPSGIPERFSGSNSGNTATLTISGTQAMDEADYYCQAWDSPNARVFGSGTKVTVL

1. 7.70
2. 9.47
3. 10.00
